The origin of these recorded values is ChEMBL document CHEMBL5576059.

protocol-text: Cytotoxicity against mouse RAW264.7 cells assessed as inhibition of cell growth at 81.35 uM by MTT assay relative to control
Type: toxicity, cell-based
reported-endpoint: inhibition at 81.35 µM (%)
All answers are understood in %, so give the number only.

According to the records, this molecule O=c1[nH]c(-c2cn(-c3ccccc3F)nn2)nc2ccccc12 displays inhibition at 81.35 µM of 27.2

* * *

protocol-text: Cytotoxicity against mouse RAW264.7 cells assessed as inhibition of cell growth at 78.29 uM by MTT assay relative to control
Type: toxicity, cell-based
reported-endpoint: inhibition at 78.29 µM (%)
All answers are understood in %, so give the number only.

According to the records, this molecule COc1ccc(-n2cc(-c3nc4ccccc4c(=O)[nH]3)nn2)cc1 displays inhibition at 78.29 µM of 24.3
